measured-on: ATP-dependent translocase ABCB1 (Homo sapiens)
Sequence (P08183 whole entry): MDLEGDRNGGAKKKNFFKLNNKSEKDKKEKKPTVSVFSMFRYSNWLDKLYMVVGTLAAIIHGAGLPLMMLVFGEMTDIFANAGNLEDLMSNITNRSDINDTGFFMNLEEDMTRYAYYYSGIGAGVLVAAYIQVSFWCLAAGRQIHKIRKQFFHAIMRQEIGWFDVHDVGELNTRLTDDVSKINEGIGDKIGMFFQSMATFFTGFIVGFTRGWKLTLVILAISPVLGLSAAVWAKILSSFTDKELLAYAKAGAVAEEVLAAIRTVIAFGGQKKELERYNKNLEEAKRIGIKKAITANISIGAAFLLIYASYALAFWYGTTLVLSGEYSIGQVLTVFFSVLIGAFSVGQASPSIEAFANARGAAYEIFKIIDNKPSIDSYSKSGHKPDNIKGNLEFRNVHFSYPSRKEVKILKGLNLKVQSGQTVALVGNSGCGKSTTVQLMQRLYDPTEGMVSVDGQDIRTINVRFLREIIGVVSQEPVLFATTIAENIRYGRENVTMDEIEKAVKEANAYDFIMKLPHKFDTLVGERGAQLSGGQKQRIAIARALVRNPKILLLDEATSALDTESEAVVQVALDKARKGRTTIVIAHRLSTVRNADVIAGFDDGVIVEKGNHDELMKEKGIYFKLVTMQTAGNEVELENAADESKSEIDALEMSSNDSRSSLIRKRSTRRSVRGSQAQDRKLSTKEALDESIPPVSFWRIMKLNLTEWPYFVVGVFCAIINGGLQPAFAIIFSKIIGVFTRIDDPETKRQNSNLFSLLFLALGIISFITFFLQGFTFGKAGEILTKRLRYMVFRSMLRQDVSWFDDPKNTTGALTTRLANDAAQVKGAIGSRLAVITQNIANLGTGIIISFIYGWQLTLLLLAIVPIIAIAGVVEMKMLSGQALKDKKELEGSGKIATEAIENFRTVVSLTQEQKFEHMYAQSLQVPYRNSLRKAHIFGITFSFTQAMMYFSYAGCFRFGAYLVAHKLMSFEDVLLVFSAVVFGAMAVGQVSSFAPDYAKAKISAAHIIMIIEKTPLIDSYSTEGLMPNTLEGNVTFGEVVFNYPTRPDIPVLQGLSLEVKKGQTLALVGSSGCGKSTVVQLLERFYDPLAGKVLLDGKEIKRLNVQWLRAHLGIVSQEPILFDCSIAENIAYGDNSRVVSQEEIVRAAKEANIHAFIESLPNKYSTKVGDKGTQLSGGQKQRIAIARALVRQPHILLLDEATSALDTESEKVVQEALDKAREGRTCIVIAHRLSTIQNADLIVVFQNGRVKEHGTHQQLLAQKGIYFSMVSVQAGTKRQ
protocol-summary: Inhibition of ABCB1 (unknown origin)
outcome-measure: IC50 (µM)
Give the value in µM but do not write µM after it.

query: Return value of IC50 for input `O=[N+]([O-])c1cc(Nc2nc(-c3ccccc3)nc3ccccc23)ccc1O` , no commentary.
result: 0.08
